- MEASURED_TARGET: Histone deacetylase 8 (Homo sapiens)
- Sequence (Q9BY41 whole entry): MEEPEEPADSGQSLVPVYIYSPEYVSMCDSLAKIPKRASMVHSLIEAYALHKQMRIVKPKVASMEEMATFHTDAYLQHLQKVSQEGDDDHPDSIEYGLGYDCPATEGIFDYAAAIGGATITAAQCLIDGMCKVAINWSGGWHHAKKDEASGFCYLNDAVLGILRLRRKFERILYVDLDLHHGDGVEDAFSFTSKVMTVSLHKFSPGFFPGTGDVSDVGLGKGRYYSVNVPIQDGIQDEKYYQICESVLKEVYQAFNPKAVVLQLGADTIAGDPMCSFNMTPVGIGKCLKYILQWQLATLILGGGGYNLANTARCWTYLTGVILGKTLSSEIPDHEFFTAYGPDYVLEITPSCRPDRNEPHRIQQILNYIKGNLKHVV
- ASSAY_PROTOCOL: Inhibition of human recombinant HDAC8 by fluorometric assay using Fluor de Lys substrate
pIC50: −log10 of the molar value.
ATTRIBUTE_MEASURED: pIC50

> print(dat)
                           molecular.string                       measured.target  reported.value
1  COc1cc2ncnc(Nc3ccc(Cl)cc3Cl)c2cc1OCCCCCC(=O)NO  Histone deacetylase 8 (Homo sapiens)            8.28

* * *

- System: A549
- ASSAY_PROTOCOL: Antiproliferative activity against human A549 cells after 48 hrs by MTT assay
- Format: functional, cell-based
- APPLIED_CONDITIONS: A549, 48 h
ATTRIBUTE_MEASURED: IC50

> print(dat)
                           molecular.string  attribute.measured  reported.value
1  COc1cc2ncnc(Nc3ccc(Cl)cc3Cl)c2cc1OCCCCCC(=O)NO                IC50          5.4 µM

* * *

- MEASURED_TARGET: Histone deacetylase
- ASSAY_PROTOCOL: Inhibition of human HDAC in HeLa cell nuclear extract by fluorometric assay using Fluor de Lys substrate
- Format: protein assay
Here the recorded IC50 is given for each entry.
ATTRIBUTE_MEASURED: IC50 (nM)

> print(dat)
                           molecular.string  relation.operator  reported.value
1  COc1cc2ncnc(Nc3ccc(Cl)cc3Cl)c2cc1OCCCC(=O)NO                  =              86
2  COc1cc2ncnc(Nc3ccc(Cl)cc3Cl)c2cc1OCCCCC(=O)NO                  =              14
3  COc1cc2/c(=N/c3ccc(Br)cc3F)nc[nH]c2cc1OCC1CCN(C)CC1                  >           10000
4  COc1cc2ncnc(Nc3cc(Cl)ccc3Cl)c2cc1OCCCC(=O)NO                  =              57
5  COc1cc2ncnc(Nc3cccc(Cl)c3)c2cc1OCCCC(=O)NO                  =             121

* * *

- MEASURED_TARGET: Protein deacetylase HDAC6 (Homo sapiens)
- Sequence (Q9UBN7 whole entry): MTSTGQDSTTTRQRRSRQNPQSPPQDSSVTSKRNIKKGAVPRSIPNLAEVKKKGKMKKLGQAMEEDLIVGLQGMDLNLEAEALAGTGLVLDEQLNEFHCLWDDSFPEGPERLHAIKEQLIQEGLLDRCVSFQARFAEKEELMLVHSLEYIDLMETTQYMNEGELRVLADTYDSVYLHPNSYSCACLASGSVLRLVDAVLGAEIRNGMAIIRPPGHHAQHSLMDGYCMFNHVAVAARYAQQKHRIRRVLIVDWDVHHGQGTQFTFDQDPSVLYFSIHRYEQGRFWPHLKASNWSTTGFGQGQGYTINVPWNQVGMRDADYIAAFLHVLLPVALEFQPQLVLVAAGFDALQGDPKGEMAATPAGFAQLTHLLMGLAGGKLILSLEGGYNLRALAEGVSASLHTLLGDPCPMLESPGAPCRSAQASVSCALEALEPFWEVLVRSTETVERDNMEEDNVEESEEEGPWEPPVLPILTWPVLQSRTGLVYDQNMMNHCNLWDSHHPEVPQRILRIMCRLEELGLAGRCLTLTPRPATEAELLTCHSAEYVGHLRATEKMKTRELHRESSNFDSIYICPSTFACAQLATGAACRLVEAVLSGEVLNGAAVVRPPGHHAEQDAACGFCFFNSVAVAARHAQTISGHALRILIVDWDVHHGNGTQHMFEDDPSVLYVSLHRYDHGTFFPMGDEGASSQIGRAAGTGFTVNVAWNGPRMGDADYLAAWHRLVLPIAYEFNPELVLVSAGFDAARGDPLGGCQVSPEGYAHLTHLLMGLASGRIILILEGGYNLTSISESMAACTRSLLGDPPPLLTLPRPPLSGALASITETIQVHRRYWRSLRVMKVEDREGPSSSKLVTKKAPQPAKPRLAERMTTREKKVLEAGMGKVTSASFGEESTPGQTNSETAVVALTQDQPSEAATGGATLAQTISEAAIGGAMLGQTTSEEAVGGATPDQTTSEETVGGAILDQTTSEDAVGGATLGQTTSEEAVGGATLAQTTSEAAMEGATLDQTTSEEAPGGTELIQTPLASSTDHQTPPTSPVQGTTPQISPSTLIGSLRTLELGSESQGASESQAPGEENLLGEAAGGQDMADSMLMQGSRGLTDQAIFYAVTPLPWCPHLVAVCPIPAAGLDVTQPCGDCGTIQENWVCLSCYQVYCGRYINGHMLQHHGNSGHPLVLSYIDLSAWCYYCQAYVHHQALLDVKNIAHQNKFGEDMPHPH
- ASSAY_PROTOCOL: Inhibition of human recombinant HDAC6 by fluorometric assay using Fluor de Lys substrate
ATTRIBUTE_MEASURED: IC50

> print(dat)
                           molecular.string  attribute.measured  reported.value
1  COc1cc2ncnc(Nc3ccc(Cl)cc3Cl)c2cc1OCCCCCC(=O)NO                IC50         25.5 nM

* * *

- MEASURED_TARGET: Vascular endothelial growth factor receptor 2 (Homo sapiens, UniProt P35968)
- Sequence (P35968 whole entry): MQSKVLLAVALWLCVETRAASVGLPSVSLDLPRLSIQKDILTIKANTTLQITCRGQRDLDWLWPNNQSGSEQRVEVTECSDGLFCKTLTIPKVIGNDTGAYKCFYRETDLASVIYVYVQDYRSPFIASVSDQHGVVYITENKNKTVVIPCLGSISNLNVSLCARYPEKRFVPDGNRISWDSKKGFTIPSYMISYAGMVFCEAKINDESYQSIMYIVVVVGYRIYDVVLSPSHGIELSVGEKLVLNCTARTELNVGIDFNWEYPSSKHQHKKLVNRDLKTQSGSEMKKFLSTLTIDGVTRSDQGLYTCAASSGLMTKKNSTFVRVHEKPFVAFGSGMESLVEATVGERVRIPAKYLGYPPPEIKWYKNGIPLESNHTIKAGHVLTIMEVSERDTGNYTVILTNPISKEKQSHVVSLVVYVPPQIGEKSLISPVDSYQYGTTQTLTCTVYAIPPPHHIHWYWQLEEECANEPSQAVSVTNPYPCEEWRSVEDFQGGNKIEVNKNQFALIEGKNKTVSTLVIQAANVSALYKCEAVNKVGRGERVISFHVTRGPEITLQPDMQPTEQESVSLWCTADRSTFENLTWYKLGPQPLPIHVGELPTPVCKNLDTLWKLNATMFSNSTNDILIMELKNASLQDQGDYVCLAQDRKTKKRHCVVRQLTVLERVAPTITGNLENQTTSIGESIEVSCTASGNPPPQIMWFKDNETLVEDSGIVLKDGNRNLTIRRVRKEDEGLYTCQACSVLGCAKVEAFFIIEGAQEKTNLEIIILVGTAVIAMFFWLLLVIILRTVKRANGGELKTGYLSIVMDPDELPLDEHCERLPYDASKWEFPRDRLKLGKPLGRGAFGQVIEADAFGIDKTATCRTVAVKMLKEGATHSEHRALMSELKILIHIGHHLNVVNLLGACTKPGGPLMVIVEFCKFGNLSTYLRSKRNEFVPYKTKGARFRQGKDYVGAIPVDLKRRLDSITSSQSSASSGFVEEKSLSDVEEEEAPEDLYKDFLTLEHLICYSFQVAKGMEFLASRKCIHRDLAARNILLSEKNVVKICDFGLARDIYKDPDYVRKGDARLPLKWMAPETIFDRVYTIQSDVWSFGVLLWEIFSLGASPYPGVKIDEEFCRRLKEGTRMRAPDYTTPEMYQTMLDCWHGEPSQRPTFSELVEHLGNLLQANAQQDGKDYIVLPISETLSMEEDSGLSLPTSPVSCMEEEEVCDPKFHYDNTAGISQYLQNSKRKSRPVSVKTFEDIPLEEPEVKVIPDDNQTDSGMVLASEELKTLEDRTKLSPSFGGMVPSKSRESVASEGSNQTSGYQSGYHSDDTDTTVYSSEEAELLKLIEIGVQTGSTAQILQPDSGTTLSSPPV
ATTRIBUTE_MEASURED: log10(IC50) (log10 of the value in nM)

> print(dat)
                           molecular.string  reported.value
1  COc1cc2ncnc(Nc3cc(Cl)ccc3Cl)c2cc1OCCC(=O)NO            3.10
2  COc1cc2ncnc(Nc3cccc(Cl)c3)c2cc1OCCCC(=O)NO            2.55
3  COc1cc2ncnc(Nc3cccc(Br)c3)c2cc1OCCCCCC(=O)NO            2.66
4  COc1cc2ncnc(Nc3cccc(Cl)c3)c2cc1OCCC(=O)NO            2.68
5  COc1cc2ncnc(Nc3ccc(Cl)cc3Cl)c2cc1OCCCCC(=O)NO            2.06
6  COc1cc2ncnc(Nc3cccc(Cl)c3)c2cc1OCCCCC(=O)NO            2.79
7  COc1cc2ncnc(Nc3cccc(Br)c3)c2cc1OCCC(=O)NO            2.80
8  COc1cc2ncnc(Nc3ccc(Cl)cc3Cl)c2cc1OCCC(=O)NO            2.57
9  COc1cc2ncnc(Nc3cc(Cl)ccc3Cl)c2cc1OCCCCC(=O)NO            3.72

* * *

Overview of recorded pIC50 for various compounds
- System: MCF7
- ASSAY_PROTOCOL: Antiproliferative activity against human MCF7 cells after 48 hrs by MTT assay
- Format: functional, cell-based
- APPLIED_CONDITIONS: MCF7, 48 h
pIC50: −log10 of the molar value.
ATTRIBUTE_MEASURED: pIC50

> print(dat)
                                    compound  attribute.measured  relation.operator  reported.value
 1  COc1cc2ncnc(Nc3cccc(Cl)c3)c2cc1OCCCCCC(=O)NO               pIC50                  =            5.49
 2  COc1cc2ncnc(Nc3ccc(Cl)cc3Cl)c2cc1OCCCC(=O)NO               pIC50                  =            4.25
 3  COc1cc2ncnc(Nc3cccc(Br)c3)c2cc1OCCC(=O)NO               pIC50                  <            4.00
 4  COc1cc2ncnc(Nc3cc(Cl)ccc3Cl)c2cc1OCCC(=O)NO               pIC50                  <            4.00
 5  COc1cc2ncnc(Nc3cccc(Br)c3)c2cc1OCCCCCC(=O)NO               pIC50                  =            5.55
 6  COc1cc2ncnc(Nc3cc(Cl)ccc3Cl)c2cc1OCCCCCC(=O)NO               pIC50                  =            5.40
 7  COc1cc2ncnc(Nc3ccc(Cl)cc3Cl)c2cc1OCCC(=O)NO               pIC50                  =            4.02
 8  COc1cc2/c(=N/c3ccc(Br)cc3F)nc[nH]c2cc1OCC1CCN(C)CC1 [VANDETANIB]               pIC50                  =            4.73
 9  COc1cc2ncnc(Nc3cc(Cl)ccc3Cl)c2cc1OCCCCC(=O)NO               pIC50                  =            4.86
10  COc1cc2ncnc(Nc3ccc(Cl)cc3Cl)c2cc1OCCCCC(=O)NO               pIC50                  =            5.19
11  COc1cc2ncnc(Nc3cc(Cl)ccc3Cl)c2cc1OCCCC(=O)NO               pIC50                  =            4.35
12  COc1cc2ncnc(Nc3cccc(Cl)c3)c2cc1OCCC(=O)NO               pIC50                  <            4.00
13  COc1cc2ncnc(Nc3ccc(Cl)cc3Cl)c2cc1OCCCCCC(=O)NO               pIC50                  =            5.92
14  COc1cc2ncnc(Nc3cccc(Br)c3)c2cc1OCCCC(=O)NO               pIC50                  =            4.16
15  COc1cc2ncnc(Nc3cccc(Br)c3)c2cc1OCCCCC(=O)NO               pIC50                  =            5.07
16  COc1cc2ncnc(Nc3cccc(Cl)c3)c2cc1OCCCC(=O)NO               pIC50                  =            4.19
17  COc1cc2ncnc(Nc3cccc(Cl)c3)c2cc1OCCCCC(=O)NO               pIC50                  =            5.07

* * *

- MEASURED_TARGET: Histone deacetylase 1 (Homo sapiens)
- Sequence (Q13547 whole entry): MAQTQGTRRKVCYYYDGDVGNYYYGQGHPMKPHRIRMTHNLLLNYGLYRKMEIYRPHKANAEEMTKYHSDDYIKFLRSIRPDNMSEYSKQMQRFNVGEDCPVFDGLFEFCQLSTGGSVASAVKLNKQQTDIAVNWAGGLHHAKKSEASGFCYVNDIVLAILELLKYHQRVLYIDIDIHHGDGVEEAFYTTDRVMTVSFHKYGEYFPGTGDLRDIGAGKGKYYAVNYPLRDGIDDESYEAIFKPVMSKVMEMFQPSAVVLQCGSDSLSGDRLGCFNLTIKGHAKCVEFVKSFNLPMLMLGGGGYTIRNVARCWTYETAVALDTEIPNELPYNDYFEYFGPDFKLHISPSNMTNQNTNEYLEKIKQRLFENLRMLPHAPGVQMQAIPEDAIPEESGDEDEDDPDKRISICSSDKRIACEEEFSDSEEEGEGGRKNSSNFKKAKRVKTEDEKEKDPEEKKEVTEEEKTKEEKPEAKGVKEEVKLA
- ASSAY_PROTOCOL: Inhibition of human recombinant HDAC1 by fluorometric assay using Fluor de Lys substrate
pIC50: −log10 of the molar value.
ATTRIBUTE_MEASURED: pIC50

> print(dat)
                           molecular.string                       measured.target  reported.value
1  COc1cc2ncnc(Nc3ccc(Cl)cc3Cl)c2cc1OCCCCCC(=O)NO  Histone deacetylase 1 (Homo sapiens)            8.46

* * *

Let's look at some compounds and their measured log10 IC50.
- MEASURED_TARGET: Histone deacetylase
- ASSAY_PROTOCOL: Inhibition of human HDAC in HeLa cell nuclear extract by fluorometric assay using Fluor de Lys substrate
- Assay type: protein assay
ATTRIBUTE_MEASURED: log10 IC50 (log10 of the value in nM)

> print(dat)
                            molecular.string  reported.value
 1  COc1cc2ncnc(Nc3cccc(Br)c3)c2cc1OCCCC(=O)NO            1.99
 2  COc1cc2ncnc(Nc3ccc(Cl)cc3Cl)c2cc1OCCC(=O)NO            2.33
 3  COc1cc2ncnc(Nc3cccc(Cl)c3)c2cc1OCCCCCC(=O)NO            0.73
 4  COc1cc2ncnc(Nc3cc(Cl)ccc3Cl)c2cc1OCCCCCC(=O)NO            0.92
 5  COc1cc2ncnc(Nc3cc(Cl)ccc3Cl)c2cc1OCCC(=O)NO            2.54
 6  COc1cc2ncnc(Nc3cccc(Br)c3)c2cc1OCCCCC(=O)NO            1.18
 7  COc1cc2ncnc(Nc3cccc(Cl)c3)c2cc1OCCCCC(=O)NO            1.23
 8  COc1cc2ncnc(Nc3ccc(Cl)cc3Cl)c2cc1OCCCCCC(=O)NO            0.45
 9  COc1cc2ncnc(Nc3cccc(Br)c3)c2cc1OCCC(=O)NO            2.73
10  COc1cc2ncnc(Nc3cccc(Br)c3)c2cc1OCCCCCC(=O)NO            0.65
11  COc1cc2ncnc(Nc3cc(Cl)ccc3Cl)c2cc1OCCCCC(=O)NO            1.32
12  COc1cc2ncnc(Nc3cccc(Cl)c3)c2cc1OCCC(=O)NO            2.81
